# tested_target: Glutamate receptor ionotropic, NMDA 1 (Rattus norvegicus)
# test_name: Binding affinity towards N-methyl-D-aspartate glutamate receptor 1 in rat cortical membranes using [3H]glycine as radioligand
# Assay type: cell membranes
# note: exactly 20 µM is not below, so it is NOT MET; use MET for Ki strictly under it

| test_smiles | assigned_label |
| --- | --- |
| CCOC(=O)c1nc2c(=O)[nH]c3cc(N)ccc3n2n1 | NOT MET |
| CCOC(=O)c1nc2c(=O)[nH]c3cc(Cl)cc(Cl)c3n2n1 | MET |
| O=C(O)c1nc2c(O)nc3cc(C(F)(F)F)ccc3n2n1 | MET |
| O=C(NCCO)c1nc2c(O)nc3cc(Cl)ccc3n2n1 | NOT MET |
| CCOC(=O)c1nc2c(O)nc3ccccc3n2n1 | MET |
| OCc1nc2c(O)nc3cc(Cl)ccc3n2n1 | MET |
| O=C(O)c1nc2c(=O)[nH]c3ccc(Cl)cc3n2n1 | MET |
| N#CCc1nc2c(O)nc3cc(Cl)ccc3n2n1 | MET |
| CCOC(=O)c1nc2c(=O)[nH]c3ccc(Cl)cc3n2n1 | NOT MET |
| CCOC(=O)Cc1nc2c(=O)[nH]c3cc(Cl)ccc3n2n1 | MET |
| CCOC(=O)c1nc2c(=O)[nH]c3cc(C(F)(F)F)ccc3n2n1 | MET |
| CCn1c(=O)c2nc(C(=O)O)nn2c2ccc(Cl)cc21 | NOT MET |
| O=C(O)Cc1nc2c(O)nc3cc(Cl)ccc3n2n1 | MET |
